# credit: patent US5756291

Attribute: Kd
- test_system: thrombin (alpha, Factor IIa) (Homo sapiens, UniProt P00734;P00734 P00734:328-363,P00734:364-622)
- test_details: filter

- binder: "pentynyl-dU clone 24 60-mer (ssDNA, X 5-pentynyl-dU; T in 3' constant region also 5-pentynyl-dU; T in 5' constant region unmodified [23,25,27,30,32,35,37,38 (X = 5-pentynyl-dU); 44,45,46,50,58 (3' constant region T = 5-pentynyl-dU)]) DNA: TAGAATACTCAAGCTTCGACGGTATATAGTATAGTATTGGCAGTTTGGATCCCCGGGTAC"
  Kd: "400 nM"
- binder: "GGTTGGGCTGGTTGGGTTGGG (ssDNA) [21-mer thrombin aptamer]"
  Kd: "~350 nM"
